Data origin, for the record: patent US20230250157A1

- MEASUREMENT TARGET: SARS-CoV-2 Omicron BA.2 RBD (SARS-CoV-2 Omicron BA.2)
- PROTOCOL DETAILS: ELISA
REPORTED METRIC: EC50

IN: I'd like to know its EC50. The binder in question is M8a-11 (antibody, V domains shown) VH: EVQLQQSGPELVKPGASVKIPCKASGYTFTDYNMDWVKQSHEKSLEWIGEIDPNNGDTIYNQKFKGKASLTVDKSSSTAYMELRSLTSEDTAVYYCAKRGYYGSSLWWYFDVWGTGTTVTVSS VL: DIQMTQSSSSFSVSLGDRVTITCKASEDIYIRLAWYQQRPGNAPRLLISNAISLETGVPSRFSGSGSGKDYTLSITSLQTEDVATYYCQQYWSTPWTFGGGTKLEIK
OUT: > 10 µg/mL
